# credit: paper PMC7774954

System: HTRA4-1
METHOD DESCRIPTION: Holdup assay, HTRA4-1
Format: binding, human

COMPOUND	BI
CC[C@H](C)[C@H](NC(=O)[C@H](CCC(N)=O)NC(=O)[C@@H](NC(=O)[C@H](Cc1c[nH]cn1)NC(=O)[C@H](CCC(N)=O)NC(=O)[C@H](CC(=O)O)NC(=O)[C@H](CCC(=O)O)NC(=O)[C@H](CC(=O)O)NC(=O)CCC(=O)NCCCOCCOCCOCCCNC(=O)CCCC[C@@H]1SC[C@@H]2NC(=O)N[C@@H]21)[C@@H](C)O)C(=O)N[C@H](C(=O)N[C@@H](CCCCNC(C)=O)C(=O)N[C@H](C(=O)O)C(C)C)[C@@H](C)O [PTEN_Ac]	-0.059
